Experiment: Solubility study at different pH (Pion, Inc.)
Assay type: physicochemical
Conditions: aqueous buffer; pH 7.0

>  <molecule>
CC(C)Cc1cc(-c2nc(-c3ccc(NS(=O)(=O)C(F)(F)F)cc3Cl)cs2)ccn1 [Compound 37]

>  <solubility [µg/mL]>
104

$$$$

----------
Tested on: SREBP2
Assay: SREBP2 cleavage in HEPG2 cells (Western blot normalized to actin)
Type: cell-based
Conditions: Homo sapiens, 24 h; 20 μM, HepG2 cells, 1 day, DMEM without FBS; read-out: Average SREBP2 cleavage (% Inhibition, n = 3)
value_kind: inhibition at 20 µM (%)

>  <molecule>
CS(=O)(=O)Nc1cc(-c2nc(-c3ccc(NS(=O)(=O)C(F)(F)F)cc3Cl)cs2)ccn1 [Compound 62]

>  <tested_on>
SREBP2

>  <value_kind>
inhibition at 20 µM

>  <recorded_number>
0

$$$$
>  <molecule>
O=S(=O)(Nc1ccc(-c2csc(-c3ccnc(CCC(F)(F)F)c3)n2)c(Cl)c1)C(F)(F)F [Compound 64]

>  <tested_on>
SREBP2

>  <value_kind>
inhibition at 20 µM

>  <recorded_number>
97

$$$$
>  <molecule>
CCCc1cc(-c2nc(-c3ccc(NS(=O)(=O)C(F)(F)F)c(O)c3)cs2)ccn1 [Compound 63]

>  <tested_on>
SREBP2

>  <value_kind>
inhibition at 20 µM

>  <recorded_number>
39

$$$$
>  <molecule>
Nc1cc(-c2nc(-c3ccc(NS(=O)(=O)C(F)(F)F)cc3Cl)cs2)ccn1 [Compound 61]

>  <tested_on>
SREBP2

>  <value_kind>
inhibition at 20 µM

>  <recorded_number>
2

$$$$

----------
Assay: PK parameters for representative compounds (i.v. and p.o.)
Settings: in vivo, iv; i.v. @ 2 mg/kg
The following compounds are shown together with reported Cmax values.

>  <smiles_entry>
O=S(=O)(Nc1ccc(-c2csc(-c3ccnc(CC4CCCCC4)c3)n2)c(Cl)c1)C(F)(F)F

>  <Cmax>
4 µM

$$$$
>  <smiles_entry>
O=S(=O)(Nc1ccc(-c2csc(-c3ccnc(CCC(F)(F)F)c3)n2)c(Cl)c1)C(F)(F)F

>  <Cmax>
7.13 µM

$$$$
>  <smiles_entry>
O=S(=O)(Nc1ccc(-c2csc(-c3cccc(N4CCCCC4)c3)n2)c(Cl)c1)C(F)(F)F

>  <Cmax>
3.44 µM

$$$$
>  <smiles_entry>
O=S(=O)(Nc1ccc(-c2csc(-c3cccc4ccccc34)n2)c(Cl)c1)C(F)(F)F

>  <Cmax>
3.57 µM

$$$$
>  <smiles_entry>
O=S(=O)(Nc1ccc(-c2csc(-c3ccnc(N4CCCCC4)c3)n2)c(Cl)c1)C(F)(F)F

>  <Cmax>
0.241 µM

$$$$
>  <smiles_entry>
O=S(=O)(Nc1ccc(-c2csc(-c3ccc4c(c3)CCO4)n2)c(Cl)c1)C(F)(F)F

>  <Cmax>
12.6 µM

$$$$
>  <smiles_entry>
O=S(=O)(Nc1ccc(-c2csc(-c3ccnc(Cc4ccccc4)c3)n2)c(Cl)c1)C(F)(F)F

>  <Cmax>
3.38 µM

$$$$
>  <smiles_entry>
O=S(=O)(Nc1ccc(-c2csc(-c3cccc4[nH]ccc34)n2)c(Cl)c1)C(F)(F)F

>  <Cmax>
3.63 µM

$$$$

----------
Assay: PK parameters for representative compounds (i.v. and p.o.)
Conditions: in vivo, po; p.o. @ 10 mg/kg

>  <compound>
O=S(=O)(Nc1ccc(-c2csc(-c3ccnc(N4CCCCC4)c3)n2)c(Cl)c1)C(F)(F)F [Compound 85]

>  <bioavailability [%]>
69.3

$$$$
>  <compound>
O=S(=O)(Nc1ccc(-c2csc(-c3cccc4ccccc34)n2)c(Cl)c1)C(F)(F)F [Compound 71]

>  <bioavailability [%]>
75.9

$$$$
>  <compound>
O=S(=O)(Nc1ccc(-c2csc(-c3ccc4c(c3)CCO4)n2)c(Cl)c1)C(F)(F)F [Compound 82]

>  <bioavailability [%]>
138

$$$$
>  <compound>
O=S(=O)(Nc1ccc(-c2csc(-c3cccc4[nH]ccc34)n2)c(Cl)c1)C(F)(F)F [Compound 80]

>  <bioavailability [%]>
291

$$$$

Data provenance: patent US9670172B2
